The measured values listed here are drawn from patent US20140193378A1.

Exercise: for every item that follows, state its recorded Relative affinity (Binding potency) vs JI-38.
# Assay target: T1, human GHRH receptor (human pituitary membrane homogenates) (human, UniProt Q02643 23-423)
# T1 construct: whole, on cells; Native receptor in human pituitary membrane homogenates, not on intact cells; also called hGHRH receptor
# T1 sequence (looked up): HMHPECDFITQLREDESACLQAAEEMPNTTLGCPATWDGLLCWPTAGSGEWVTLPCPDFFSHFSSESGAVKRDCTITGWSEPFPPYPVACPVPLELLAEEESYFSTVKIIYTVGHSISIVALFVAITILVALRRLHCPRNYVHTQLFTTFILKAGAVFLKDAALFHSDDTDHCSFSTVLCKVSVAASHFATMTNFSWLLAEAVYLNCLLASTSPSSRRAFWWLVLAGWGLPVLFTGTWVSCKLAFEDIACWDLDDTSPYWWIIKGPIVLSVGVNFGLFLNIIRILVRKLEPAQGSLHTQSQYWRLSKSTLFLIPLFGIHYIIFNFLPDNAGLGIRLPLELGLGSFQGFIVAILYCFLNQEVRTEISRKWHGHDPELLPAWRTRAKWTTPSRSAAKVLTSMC
# Assay text: radioligand competition vs 125I-JV-1-42 (0.2 nM), human pituitary membranes
Non-standard residues stand in square brackets, D forms with d. No end group written: not given here. *: point of attachment. Phe(F5) = N[C@@H](Cc1c(F)c(F)c(F)c(F)c1F)C(=O)O; NMeY = CN[C@@H](Cc1ccc(O)cc1)C(=O)O; Agmatine = N=C(N)NCCCCN*; Nle = CCCC[C@H](N)C(=O)O; Orn = NCCC[C@H](N)C(=O)O; Abu = CC[C@H](N)C(=O)O
# number only, unit fold dropped from output

Reported Relative affinity (Binding potency) vs JI-38 for [NMeY][dA]DAIFTNSYR[Orn]VL[Abu]QLSAR[Orn]LLQDI[Nle]D[Agmatine] (also called Peptide 20367) [P-20367 [N-Me-Tyr^1, D-Ala^2, Orn^12, Abu^15, Orn^21, Nle^27, Asp^28, Agm^29]hGHRH(1-29)NH2] was 2.56

Reported Relative affinity (Binding potency) vs JI-38 for [NMeY][dA]DAIFTNSYR[Orn]VL[Abu]QLSAR[Orn]LLQDI[Nle]DR-NHMe (also called Peptide 27409; MR-409) [P-27409 [N-Me-Tyr^1, D-Ala^2, Orn^12, Abu^15, Orn^21, Nle^27, Asp^28]hGHRH(1-29)NH-CH3] was 4.1

Reported Relative affinity (Binding potency) vs JI-38 for [NMeY][dA]DAI[Phe(F5)]TNSYR[Orn]VL[Abu]QLSAR[Orn]LLQDI[Nle]DR-NHMe [P-27404 [N-Me-Tyr^1, D-Ala^2, Fpa5^6, Orn^12, Abu^15, Orn^21, Nle^27, Asp^28]hGHRH(1-29)NH-CH3] was 5

Reported Relative affinity (Binding potency) vs JI-38 for [NMeY][dA]DAI[Phe(F5)]TNSYR[Orn]VL[Abu]QLSAR[Orn]LLQDI[Nle]D[Agmatine] (also called Peptide 20359) [P-20359 [N-Me-Tyr^1, D-Ala^2, Fpa5^6, Orn^12, Abu^15, Orn^21, Nle^27, Asp^28, Agm^29]hGHRH(1-29)NH2] was 1.43
